# System: ACHN renal
# procedure.details: NCI tumour cell line growth inhibition, 48 h
Listed below: TGI values for each entry.

Recorded TGI, per entry:
given.smiles: COC(=O)Nc1nc2ccc(Oc3ccc(NC(=O)Nc4cccc(Br)c4)cc3)cc2[nH]1
tested.system: ACHN renal
value: > 25 µM

given.smiles: Nc1ccc(N=Nc2ccccc2)c(N)n1
tested.system: ACHN renal
value: > 100 µM

Switching to the query record.
For CN(C)CCOC(=O)c1ccc(N)cc1 , what is its reported TGI?
> 100 µM

----------
Listed below: TGI values for each entry.
# Tested on: NCI-H226 lung
# procedure.details: NCI tumour cell line growth inhibition, 48 h

Recorded TGI, per entry:
molecule: CCCn1c(=O)c2ccccc2[n+]2c(-c3ccc([N+](=O)[O-])cc3)csc12
tested.system: NCI-H226 lung
value: > 100 µM
//
molecule: O=C1CCC2(CC1CCSc1ccccc1)OCCO2 (stereo not given)
tested.system: NCI-H226 lung
value: > 100 µM
//
molecule: CCOC(=O)C(=O)C1C(=O)Nc2ccccc21 (stereo not given)
tested.system: NCI-H226 lung
value: > 100 µM

Switching to the query record.
For Cn1c(-c2ccc[se]2)ccc1-c1ccc(CO)[se]1 , what is its reported TGI?
0.884 µM

----------
# Tested on: UACC-62 melanoma
# procedure.details: NCI tumour cell line growth inhibition, 48 h; in the data active means GI50 below about 0.43 µM; inactive means the rest
# valid calls are active, inactive; nothing else

compound: COc1cc2c(c(OC)c1OC)-c1ccc(NNC(=S)N(Cc3cccc(C[N+](Cc4cccc(CNC56CC7CC(CC(C7)C5)C6)c4)(Cc4cccc(CNC56CC7CC(CC(C7)C5)C6)c4)Cc4cccc(CN(C(=S)NNc5ccc6c(cc5=O)[C@@H](NC(C)=O)CCc5cc(OC)c(OC)c(OC)c5-6)C56CC7CC(CC(C7)C5)C6)c4)c3)C34CC5CC(CC(C5)C3)C4)c(=O)cc1[C@@H](NC(C)=O)CC2 (stereo not given in full)
assigned.category: inactive
--
compound: CSc1ccc(-c2cc(-c3ccc(NC(=O)CCCN4CCCC4)cc3)nc(-c3ccc(NC(=O)CCCN4CCCC4)cc3)c2)cc1
assigned.category: inactive

Short answer needed: outcome of this test for C=C1C(=O)O[C@H]2[C@H]1CC/C(CNS(=O)(=O)c1ccc3ccccc3c1)=C\CC[C@@]1(C)O[C@@H]21 ?
inactive

Entry to check: CC(=N\O)/C(C)=N/O.CC(=N\O)/C(C)=N/O.CC(=N\O)/C(C)=N/O.CC(=N\O)/C(C)=N/O.[Cu].[Cu]
inactive

Entry to check: Nc1ccc(-c2nc3ccccc3[nH]2)c(O)c1
inactive

Entry to check: O=C1c2ccccc2-c2c1c1ccc([N+](=O)[O-])cc1c(=O)n2CCNCCCNCCn1c2c(c3ccc([N+](=O)[O-])cc3c1=O)C(=O)c1ccccc1-2
active

Entry to check: Nc1nc2c(c3ncccc13)C(c1ccc(Cl)c(Cl)c1)Cc1ncccc1-2 (stereo not given)
inactive

Entry to check: O=[N+]([O-])c1cc(O)c(O)cc1-c1cn2ccsc2n1
inactive

Entry to check: Cc1ccccc1S(=O)(=O)N1[C@H](c2ccc(Cl)cc2)C(C(=O)N[C@@H](Cc2ccccc2)C(N)=O)=C[C@@H]1C(C)(C)C
inactive

Entry to check: C[C@]12CC/C(=N\N)C[C@@H]1CC[C@@H]1[C@@H]2CC[C@]2(C)/C(=N/N)CC[C@@H]12
inactive
